Molecular target: human TLR7 (Homo sapiens, UniProt Q9NYK1)
Sequence (Q9NYK1 27-1049): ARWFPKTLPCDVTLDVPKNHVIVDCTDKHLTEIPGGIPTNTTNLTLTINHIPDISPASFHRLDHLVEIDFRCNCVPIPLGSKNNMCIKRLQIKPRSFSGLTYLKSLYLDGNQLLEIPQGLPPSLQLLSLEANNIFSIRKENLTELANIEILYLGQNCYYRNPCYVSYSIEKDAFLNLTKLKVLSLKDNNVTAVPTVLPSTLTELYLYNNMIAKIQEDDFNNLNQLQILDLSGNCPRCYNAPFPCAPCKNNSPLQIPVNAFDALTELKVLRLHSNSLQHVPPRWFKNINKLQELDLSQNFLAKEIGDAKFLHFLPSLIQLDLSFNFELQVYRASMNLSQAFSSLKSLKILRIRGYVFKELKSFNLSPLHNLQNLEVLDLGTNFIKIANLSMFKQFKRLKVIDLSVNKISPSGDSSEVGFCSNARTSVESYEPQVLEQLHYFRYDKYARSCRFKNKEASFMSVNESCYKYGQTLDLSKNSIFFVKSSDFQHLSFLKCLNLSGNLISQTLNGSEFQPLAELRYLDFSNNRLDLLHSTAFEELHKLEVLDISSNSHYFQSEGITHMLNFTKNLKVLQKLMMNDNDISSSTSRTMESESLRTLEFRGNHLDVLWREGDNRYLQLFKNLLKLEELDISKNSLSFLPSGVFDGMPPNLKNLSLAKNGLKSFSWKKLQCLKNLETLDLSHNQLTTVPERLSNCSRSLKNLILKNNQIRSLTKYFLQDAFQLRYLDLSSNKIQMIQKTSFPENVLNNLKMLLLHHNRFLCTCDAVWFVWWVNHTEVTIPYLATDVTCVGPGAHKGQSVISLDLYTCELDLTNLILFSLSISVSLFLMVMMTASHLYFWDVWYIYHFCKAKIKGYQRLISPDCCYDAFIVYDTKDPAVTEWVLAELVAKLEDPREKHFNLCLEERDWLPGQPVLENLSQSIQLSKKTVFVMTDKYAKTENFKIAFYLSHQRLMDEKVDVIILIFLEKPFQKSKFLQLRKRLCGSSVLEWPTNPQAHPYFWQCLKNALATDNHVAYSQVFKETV
Assay: TLR7 inhibition reporter assay (HEK-Blue cells, SEAP reporter, gardiquimod stimulation)
Details: HEK-Blue cells overexpressing human TLR7, gardiquimod 7.5 μM
pIC50: −log10 of the molar value.
Returns one of y or n; y when pIC50 is >= 7.

Example entries begin here.
compound=CCc1c(-c2ccc(OC)c(OC)c2)[nH]c2ccc(C3CCN(C(=O)CNCCO)CC3)cc12 label=y
compound=COc1ccc(-c2[nH]c3ccc(C4CCN(Cc5ccc(N6CCCC6)cc5)CC4)cc3c2C)cc1OC label=n
compound=COc1ccc(-c2[nH]c3ccc(C4CCN(CC(=O)N(C)CCCN(C)C)CC4)cc3c2CC(F)(F)F)cc1OC label=y

Query: # check: pIC50 of `COc1ccc(-c2[nH]c3ccc(C4CCN(C(=O)CN5CCC[C@@H](C(=O)N6CCC(N(C)C)CC6)C5)CC4)cc3c2C(C)C)cc1OC` is greater than or equal to 7
Result: y

Query: Decide: pIC50 of CCN(CC)C(=O)C1CCCN(CC(=O)N2CCC(c3ccc4[nH]c(-c5ccc(OC)c(OC)c5)c(C5CCOCC5)c4c3)CC2)C1 (stereo not shown) [Example 392] >= 7?
Result: n

Query: Test whether the compound `CCc1c(-c2ccc(OC)c(OC)c2)[nH]c2ccc(C3CCN(C4CCN(Cc5ccsc5)CC4)CC3)cc12` records pIC50 of 7 or higher.
Result: n
